Listed below: polymerase ribozyme fitness (log ratio) values for each entry.
B1: TPR t1 (parent)
chain: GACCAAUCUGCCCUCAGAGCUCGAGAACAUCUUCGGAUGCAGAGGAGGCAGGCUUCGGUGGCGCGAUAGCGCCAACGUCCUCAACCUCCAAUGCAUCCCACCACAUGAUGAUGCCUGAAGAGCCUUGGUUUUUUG

Variants of: B1
Test: polymerase ribozyme fitness, log enrichment relative to wild type (log ratio); higher = more active; in vitro selection for triplet polymerase activity
Provide a numeric answer; units are not to be included.

Use these answered entries as a reference point.
>  <mutation list>
C20U A41C C72A C101G

>  <recorded measurement>
-3.66

$$$$
>  <mutation list>
A50G G57U C79A C115A

>  <recorded measurement>
-1.84

$$$$
>  <mutation list>
A2G U9G U106G U112C U130A

>  <recorded measurement>
-0.197

$$$$
>  <mutation list>
C34A G127C

>  <recorded measurement>
-3.8

$$$$
>  <mutation list>
C20U A43G C53A G110U G120U

>  <recorded measurement>
-6.4

$$$$

Which measured polymerase ribozyme fitness (log ratio) value corresponds to G51U G71C U78C C114A ? -7.09

Which measured polymerase ribozyme fitness (log ratio) value corresponds to U32C G63C ? -0.346

Which measured polymerase ribozyme fitness (log ratio) value corresponds to U109A A111C C114A G117C ? -6.37

Which measured polymerase ribozyme fitness (log ratio) value corresponds to C12A C40U A111C U131A ? -0.623

Which measured polymerase ribozyme fitness (log ratio) value corresponds to G61A U106C ? 0.151

Which measured polymerase ribozyme fitness (log ratio) value corresponds to G48C C64U ? -1.12
